- Read-out: E-selectin (Homo sapiens)
- ASSAY PROTOCOL: BSK_3C_Eselectin: BioMAP Diversity Plus: 3C Assay for Eselectin Biomarker Activity (AID 2283015)
- REPORTED CONDITIONS: primary human endothelial cells (HUVEC); actives raise or lower the signal
Activity calls are given as the source filed them. The calls were made as follows: active = hit-call score of the fitted dose curve at least 0.9, where 1 is the maximum; inactive = score below 0.9.
ENDPOINT LABEL: AC50

// below: answered molecules
{"MOLECULE": "CCC(C)Nc1c([N+](=O)[O-])cc(C(C)(C)C)cc1[N+](=O)[O-] (stereo unspecified)", "AC50": "25.8 µM (active)"}
{"MOLECULE": "O=C(O)COc1ccc(Cl)cc1Cl", "AC50": "inactive"}
{"MOLECULE": "CCC(C)(C)C(=O)OC1=C(c2ccc(Cl)cc2Cl)C(=O)OC12CCCCC2", "AC50": "19.9 µM (active)"}
{"MOLECULE": "CNC(=O)Oc1ccccc1OC(C)C", "AC50": "inactive"}
{"MOLECULE": "OCCOc1ccccc1", "AC50": "inactive"}

Turning now to a further molecule:
Quote AC50 reported for CC1(C)C(C=C(Cl)Cl)C1C(=O)OC(C#N)c1ccc(F)c(Oc2ccccc2)c1 (stereo unspecified) please. inactive
